The reported measurements were obtained from patent US8361968B2.

- ASSAY_NAME: Stability of compound in blood (mouse serum, half life)
- CONDITION_SET: female, Balb/c
Answer each item with its documented half-life at 100 µM.
Give bare numbers, in s.

Batch lookup, half-life at 100 µM per entry.
1. CC(C)C[C@H](NC(=O)CNC(=O)[C@H](Cc1ccccc1)NC(=O)[C@H](CO)NC(=O)[C@H](CC(N)=O)NC(=O)[C@H](Cc1c[nH]c2ccccc12)NC(=O)[C@H](CC(N)=O)NC(=O)[C@H](N)Cc1ccc(O)cc1)C(=O)N[C@@H](CCCNC(=N)N)C(=O)N[C@@H](Cc1ccccc1)C(N)=O
2. CNC(=N)NCCC[C@H](NC(=O)[C@H](CC(C)C)NC(=O)CC(=O)N[C@H](Cc1ccccc1)NC(=O)[C@H](CO)NC(=O)[C@H](CC(N)=O)NC(=O)[C@H](Cc1c[nH]c2ccccc12)NC(=O)[C@H](CC(N)=O)NC(=O)[C@H](N)Cc1ccc(O)cc1)C(=O)N[C@@H](Cc1ccccc1)C(N)=O
3. CC(C)C[C@H](NC(=O)CNC(=O)[C@H](Cc1ccccc1)NC(=O)[C@H](CO)NC(=O)[C@H](CC(N)=O)NC(=O)[C@H](Cc1c[nH]c2ccccc12)NC(=O)[C@H](CC(N)=O)NC(=O)[C@@H](N)Cc1ccc(O)cc1)C(=O)N[C@@H](CCCNC(=N)N)C(=O)N[C@@H](Cc1ccccc1)C(N)=O [Compound No. 3, reference compound]

1. 42
2. 1980
3. 36

* * *

Please go through the items and note down their Specific Activity (intracellular Ca ion level-increasing activity).
- TARGET_OR_SYSTEM: hOT7T175 (Homo sapiens, UniProt Q969F8, L364H)
- Sequence (Q969F8 whole entry L364H): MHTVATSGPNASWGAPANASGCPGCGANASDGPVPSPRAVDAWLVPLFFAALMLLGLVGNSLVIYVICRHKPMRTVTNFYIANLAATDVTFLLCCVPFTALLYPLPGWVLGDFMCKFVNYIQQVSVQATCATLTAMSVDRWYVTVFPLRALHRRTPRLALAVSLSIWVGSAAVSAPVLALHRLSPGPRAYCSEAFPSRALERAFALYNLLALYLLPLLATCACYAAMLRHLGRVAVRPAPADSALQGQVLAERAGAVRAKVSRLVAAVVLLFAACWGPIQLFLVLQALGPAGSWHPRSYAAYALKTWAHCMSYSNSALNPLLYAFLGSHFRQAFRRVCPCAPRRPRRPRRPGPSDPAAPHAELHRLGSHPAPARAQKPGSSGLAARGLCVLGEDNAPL
- ASSAY_NAME: Intracellular Ca ion level-increasing activity using FLIPR in hOT7T175/CHO
- Format: cell-based
- Parameters: expressed in transfected cells; host or cells: CHO/dhfr- cells, obtained from ATCC
- CONDITION_SET: relative, Metastin (1-54) = 1
Square brackets hold non-standard residues; d marks the D form. Peptide text beside a SMILES is read from it. * marks the point of attachment. Arg(Me) = CNC(=N)NCCC[C@H](N)C(=O)O; Fmoc = O=C(OCC1c2ccccc2-c2ccccc21)*; d4Pal = N[C@H](Cc1ccncc1)C(=O)O; Cha = N[C@@H](CC1CCCCC1)C(=O)O; azaGly = NNC(=O)O
One number for each entry.

Sample answers from the record:
COMPOUND	MEASURED
CNC(=N)NCCC[C@H](NC(=O)[C@H](CC(C)C)NC(=O)NNC(=O)[C@H](Cc1ccccc1)NC(=O)[C@H](CO)NC(=O)[C@H](CC(N)=O)NC(=O)[C@H](CC1CCCCC1)NC(=O)[C@@H](CC(N)=O)NC(=O)[C@H](N)Cc1ccncc1)C(=O)N[C@@H](Cc1ccccc1)C(N)=O [Compound No. 306] (H-[d4Pal][dN][Cha]NSF[azaGly]L[Arg(Me)]F-NH2)	2
CNC(=N)NCCC[C@H](NC(=O)[C@H](CC(C)C)NC(=O)NNC(=O)[C@H](Cc1ccccc1)NC(=O)[C@H](CO)NC(=O)[C@H](CC(N)=O)NC(=O)[C@H](Cc1c[nH]c2ccccc12)NC(=O)[C@@H](Cc1c[nH]cn1)NC(=O)[C@H](N)Cc1ccc(O)cc1)C(=O)N[C@@H](Cc1ccccc1)C(N)=O [Compound No. 288] (H-[dY][dH]WNSF[azaGly]L[Arg(Me)]F-NH2)	1

Proceeding to the next compound to report its Specific Activity (intracellular Ca ion level-increasing activity).
Need Specific Activity (intracellular Ca ion level-increasing activity), item CC(C)C[C@H](NC(=O)CNC(=O)[C@H](Cc1ccccc1)NC(=O)[C@H](CO)NC(=O)[C@H](CC(N)=O)NC(=O)[C@H](Cc1c[nH]c2ccccc12)NC(=O)OCC1c2ccccc2-c2ccccc21)C(=O)N[C@@H](CCCNC(=N)N)C(=O)N[C@@H](Cc1ccccc1)C(N)=O [Compound No. 54] (Fmoc-WNSFGLRF-NH2)
5

* * *

- TARGET_OR_SYSTEM: hOT7T175 (Homo sapiens, UniProt Q969F8, L364H)
- ASSAY_NAME: Intracellular Ca ion level-increasing activity using FLIPR in hOT7T175/CHO
- Format: cell-based
- Design: expressed in transfected cells; host or cells: CHO/dhfr- cells, obtained from ATCC
- CONDITION_SET: relative, Metastin (1-54) = 1
Square brackets hold non-standard residues; d marks the D form. Peptide text beside a SMILES is read from it. * marks the point of attachment. NαAmidinoTrp = N=C(N)N[C@@H](Cc1c[nH]c2ccccc12)C(=O)*; Arg(Me) = CNC(=N)NCCC[C@H](N)C(=O)O; d3Pal = N[C@H](Cc1cccnc1)C(=O)O; azaGly = NNC(=O)O
MEASUREMENT_NAME: Specific Activity (intracellular Ca ion level-increasing activity)
Numbers only.

Example results:
COMPOUND	TARGET_OR_SYSTEM	MEASURED
CNC(=N)NCCC[C@H](NC(=O)[C@H](CC(C)C)NC(=O)NNC(=O)[C@H](Cc1ccccc1)NC(=O)[C@H](CO)NC(=O)[C@H](CC(N)=O)NC(=O)[C@H](Cc1c[nH]c2ccccc12)NC(=O)[C@H](CC(N)=O)NC(=O)[C@H](N)Cc1ccc(O)cc1)C(=O)N[C@@H](Cc1ccc(F)cc1)C(N)=O [Compound No. 318]	hOT7T175 (Homo sapiens, UniProt Q969F8, L364H)	5
CNC(=N)NCCC[C@H](NC(=O)[C@H](CC(C)C)NC(=O)CNC(=O)[C@H](Cc1ccccc1)NC(=O)[C@H](CO)NC(=O)[C@H](CC(N)=O)NC(=O)[C@@H](Cc1c[nH]c2ccccc12)NC(=O)[C@H](CC(N)=O)NC(=O)[C@@H](N)Cc1ccc(O)cc1)C(=O)N[C@@H](Cc1ccccc1)C(N)=O [Compound No. 143]	hOT7T175 (Homo sapiens, UniProt Q969F8, L364H)	3
CC(C)C[C@H](NC(=O)CNC(=O)[C@H](Cc1ccccc1)NC(=O)[C@H](CO)NC(=O)[C@H](CC(N)=O)NC(=O)[C@@H](Cc1c[nH]c2ccccc12)NC(=O)[C@H](CC(N)=O)NC(=O)[C@@H](N)Cc1ccc(O)cc1)C(=O)N[C@@H](CCCNC(=N)N)C(=O)N[C@@H](Cc1ccccc1)C(N)=O [Compound No. 40]	hOT7T175 (Homo sapiens, UniProt Q969F8, L364H)	30
CNC(=N)NCCC[C@H](NC(=O)[C@H](CC(C)C)NC(=O)NNC(=O)[C@H](Cc1ccccc1)NC(=O)[C@H](CO)NC(=O)[C@H](CC(N)=O)NC(=O)[C@H](Cc1c[nH]c2ccccc12)NC(=O)[C@H](N)Cc1cccnc1)C(=O)N[C@@H](Cc1ccccc1)C(N)=O [Compound No. 289] (H-[d3Pal]WNSF[azaGly]L[Arg(Me)]F-NH2)	hOT7T175 (Homo sapiens, UniProt Q969F8, L364H)	1
CNC(=N)NCCC[C@H](NC(=O)[C@H](CC(C)C)NC(=O)NNC(=O)[C@H](Cc1ccccc1)NC(=O)[C@H](CO)NC(=O)[C@H](CC(N)=O)NC(=O)[C@H](Cc1c[nH]c2ccccc12)NC(=N)N)C(=O)N[C@@H](Cc1ccccc1)C(N)=O [Compound No. 273] (NαAmidinoTrp-NSF[azaGly]L[Arg(Me)]F-NH2)	hOT7T175 (Homo sapiens, UniProt Q969F8, L364H)	5

Next, consider the following compound.
Which measured Specific Activity (intracellular Ca ion level-increasing activity) value corresponds to CNC(=N)NCCC[C@H](NC(=O)[C@H](CC(C)C)NC(=O)NNC(=O)[C@H](Cc1ccccc1)NC(=O)[C@H](Cc1ccccc1)NC(=O)[C@H](CO)NC(=O)[C@H](CC(N)=O)NC(=O)[C@H](Cc1ccccc1)NC(=O)[C@H](CC(N)=O)NC(=O)[C@H](N)Cc1ccc(O)cc1)C(=O)N[C@@H](Cc1ccccc1)C(N)=O [Compound No. 270] (H-[dY]NFNSFF[azaGly]L[Arg(Me)]F-NH2) ?
1

* * *

- TARGET_OR_SYSTEM: hOT7T175 (Homo sapiens, UniProt Q969F8, L364H)
- ASSAY_NAME: Intracellular Ca ion level-increasing activity using FLIPR in hOT7T175/CHO
- Format: cell-based
- Design: expressed in transfected cells; host or cells: CHO/dhfr- cells, obtained from ATCC
- CONDITION_SET: relative, Metastin (1-54) = 1
Numbered stars: 1 amine (or outer) side, 2 acyl side, 3 side chain; on linkers, the order of the positions; unused ones are H or OH. Square brackets hold non-standard residues; d marks the D form. Peptide text beside a SMILES is read from it. X1 = O=C([C@H](Cc1ccc2ccccc2n1)N[*:1])[*:2]; Arg(Me) = CNC(=N)NCCC[C@H](N)C(=O)O; Cha = N[C@@H](CC1CCCCC1)C(=O)O
MEASUREMENT_NAME: Specific Activity (intracellular Ca ion level-increasing activity)
One number for each entry.

State the recorded Specific Activity (intracellular Ca ion level-increasing activity) for every item in the following list.
1. CNC(=N)NCCC[C@H](NC(=O)[C@H](CC(C)C)NC(=O)CNC(=O)[C@H](Cc1ccccc1)NC(=O)[C@H](CO)NC(=O)[C@H](CC(N)=O)NC(=O)[C@H](CC1CCCCC1)NC(=O)[C@H](CC(N)=O)NC(=O)[C@H](N)Cc1ccc(O)cc1)C(=O)N[C@@H](Cc1ccccc1)C(N)=O [Compound No. 171] (H-[dY]N[Cha]NSFGL[Arg(Me)]F-NH2)
2. CNC(=N)NCCC[C@H](NC(=O)[C@H](CC(C)C)NC(=O)CNC(=O)[C@H](Cc1ccccc1)NC(=O)[C@H](CO)NC(=O)[C@H](CC(N)=O)NC(=O)[C@H](Cc1c[nH]c2ccccc12)NC(=O)[C@H](CC(N)=O)NC(=O)[C@H](N)Cc1ccc(O)cc1)C(=O)N[C@@H](Cc1ccccc1)C(N)=O
3. CC(C)C[C@H](NC(=O)CNC(=O)[C@H](Cc1ccccc1)NC(=O)[C@H](CO)NC(=O)[C@H](CC(N)=O)NC(=O)[C@H](Cc1c[nH]c2ccccc12)NC(=O)[C@H](CC(N)=O)NC(=O)[C@@H](N)Cc1ccc(O)cc1)C(=O)N[C@@H](CCCNC(=N)N)C(=O)N[C@@H](Cc1ccc2ccccc2n1)C(N)=O [Compound No. 201] (H-YNWNSFGLR[X1]-NH2)

1. 10
2. 10
3. 1
